Test system: A498 renal
Assay: NCI-60 one-dose screen, 48 h
Details: 10 µM
Protocol: Growth inhibition of the A498 human tumor cell line is measured as a screen for anti-cancer activity. Cells are grown in 96 well plates and exposed to the test compound for 48 hours. Compounds are tested at a single concentration, which is 10^-5 M for most compounds. The reported endpoint is percent growth (GI% or GIPRCNT), where numbers from 0 - 100% represent growth inhibition, and numbers from -100% - 0 represent cell death. For example, a value of 40 represents 60% growth inhibition. […]
About 83,000 compounds went through this panel and 20% of them were active in at least one assay; those are over-represented in the sample as a whole. Activity calls are given as the source filed them. The calls were made as follows: active = growth percent below 10; inactive = the rest.
Outcome codes: label 1 = active, label 0 = inactive

>>> label_class("COC1OC2COC(c3ccccc3)OC2C(=O)C1NC(=O)c1ccccc1 (stereo unspecified)")
"label 0"
>>> label_class("O=C(/C=C/c1nnc2n(Cc3ccccc3)c(=O)c3c4c(sc3n12)CCCC4)c1ccccc1")
"label 0"
>>> label_class("COc1cc(C2C=C(c3ccc(Cl)cc3)N=C3SC(C)=CN32)cc(OC)c1OC (stereo unspecified)")
"label 0"
>>> label_class("CCOc1cc(Br)c(C(C)NC(=O)c2cccc(OC)c2)cc1OCC (stereo unspecified)")
"label 0"
>>> label_class("O=C(O)CN1C(=O)C=CC1=O")
"label 0"
>>> label_class("COc1cc(CSc2nc3ccc(Cl)cc3c(=O)n2-c2ccccc2)cc(OC)c1OC")
"label 0"
>>> label_class("C[C@@H]1C(=O)N(C[C@H](Cc2ccccc2)NC(=O)OCc2ccccc2)[C@]1(Cc1ccccc1)C(=O)OCc1ccccc1")
"label 0"
>>> label_class("Cc1nc2sccn2c1-c1csc(Nc2cccc(Cl)c2C)n1")
"label 0"
>>> label_class("COc1ccc(-c2csc(-c3cc(Cl)cc(Cl)c3Cl)n2)cc1")
"label 0"
>>> label_class("COc1ccccc1S(=O)(=O)Nc1ccc2c(c1)CN(C)C(=O)N2")
"label 1"
>>> label_class("CCC(CCNc1cc(OC)cc2cccnc12)CN1C(=O)c2ccccc2C1=O (stereo unspecified)")
"label 0"

###

Tested on: K-562 leukemia
Assay: NCI-60 one-dose screen, 48 h (100 = growth as untreated, 0 = no growth, -100 = all killed)
Conditions: 10 µM
This is part of a sample that, as a whole, favours compounds with a hit. Of some 83,000 tested, about 20% had one in any assay. Activity calls are given as the source filed them. How the source made its calls: active means growth percent below 10; inactive means the rest.
# key: entry, value: growth
measured-parameter: growth

>>> result("O=C(c1ccccc1)C(Nc1ccccc1)c1ccccc1 (centres undefined)")
"90.5% (inactive)"
>>> result("CCCCCc1cc[n+](CC(=O)c2ccc(Cl)cc2)cc1")
"90.7% (inactive)"
>>> result("CC(=O)OC1Oc2ccccc2-c2oc(=O)c(-c3ccc(F)cc3)cc21 (centres undefined)")
"87.7% (inactive)"
>>> result("COC(=O)CCCCCCCCC(C)c1ccc(C(C)=O)cc1 (centres undefined)")
"92.3% (inactive)"

###

Test system: CAKI-1 renal
Assay: NCI-60 one-dose screen, 48 h
Conditions: 10 µM
The panel holds about 83,000 compounds, 20% with a hit somewhere; the sample as a whole holds those more often. Active and inactive are the calls of the source. The calls were made as follows: active = growth percent below 10; inactive = the rest.
Outcome codes: active, inactive

>>> label_class("Nc1nsc(C(=O)c2ccc(O)cc2)n1")
"inactive"
>>> label_class("O=C1NN(c2ccccc2)C(c2cccnc2)=N/C1=C\\c1cccnc1")
"inactive"
>>> label_class("Brc1ccc(-c2cn3ccnc3c(-c3ccc(Br)cc3)n2)cc1")
"inactive"
>>> label_class("C[C@H](NC(=O)[C@@H]1CSSC[C@@H](NC(=O)Cc2nc3ccccc3cc2O)C(=O)NCC(=O)N1C)c1ccccc1")
"inactive"
>>> label_class("CC1=CC2OC34COC3CC(OC(=O)C(F)(F)F)C4(C)C2(C)CC1 (configuration not stated)")
"inactive"
>>> label_class("CC(C)OCc1cc(CN2CCN(c3cccc(Cl)c3)CC2)c(O)c2ncccc12")
"active"
>>> label_class("COc1ccc(-c2csc(-c3cc(Cl)cc(Cl)c3Cl)n2)cc1")
"inactive"
>>> label_class("Nc1ccc(Sc2ccc3c4c2cccc4c(=O)n2c4ccccc4nc32)cc1")
"active"
>>> label_class("C[C@@H]1C(=O)N(C[C@H](Cc2ccccc2)NC(=O)OCc2ccccc2)[C@]1(Cc1ccccc1)C(=O)OCc1ccccc1")
"inactive"
>>> label_class("CCCCCC(=O)N1c2ccccc2NC2=C(C(=O)CC(c3ccc(OC)c(OC)c3)C2)C1c1ccc(C(F)(F)F)cc1 (configuration not stated)")
"inactive"
>>> label_class("CCCCCC(CCC)COC(=O)c1ccc(OC)cc1 (configuration not stated)")
"inactive"
>>> label_class("COc1ccc(Cn2cc3c(c2-c2ccccc2)CC(C)(C)c2cnoc2-3)cc1")
"active"

###

Tested on: SR leukemia
Assay: NCI-60 one-dose screen, 48 h (100 = growth as untreated, 0 = no growth, -100 = all killed)
Conditions: 10 µM
This is part of a sample that, as a whole, favours compounds with a hit. Of some 83,000 tested, about 20% had one in any assay.
Could you mark each record Condition met if its growth falls strictly under 20%, and Condition not met if it equals or exceeds it?

>>> label_class("CCOc1cc(Br)c(C(C)NC(=O)c2cccc(OC)c2)cc1OCC (configuration not stated)")
"Condition met"
>>> label_class("COc1ccc2oc(=O)cc(C(c3ccc[nH]3)c3ccc[nH]3)c2c1")
"Condition met"
>>> label_class("O=C(O)CCCN1C(=O)NC2(C1=O)c1ccccc1-c1ccccc12")
"Condition not met"
>>> label_class("CCCCCCCOc1cccc(/C=C2/C(=O)N=C3SCCCN32)c1")
"Condition not met"
>>> label_class("COc1ccc2nc(C)cc(Nc3ccc(Cl)cc3)c2c1")
"Condition not met"
>>> label_class("CCOC(=O)CSC(=S)SCC(=O)OCC")
"Condition not met"
>>> label_class("COc1cc(/C=C/C(=O)c2cc(-c3ccc(C(F)(F)F)cc3)ccc2O)cc(OC)c1OC")
"Condition not met"
>>> label_class("O=c1ccc2nc(-c3ccccc3)nn(-c3ccccc3)c-2c1")
"Condition met"
>>> label_class("CC1(CO)CCCC12OCCO2 (configuration not stated)")
"Condition not met"
>>> label_class("Cc1cc(C)c2nc(C)c(C)[n+]([O-])c2c1")
"Condition not met"
>>> label_class("O=[N+]([O-])c1ccc(-c2nc(Cl)c3c(n2)CCCC3)o1")
"Condition not met"
>>> label_class("N#Cc1ccc(-n2cnc(NC(=O)[C@H]3CCN(C#N)C3)c2)cc1")
"Condition met"
>>> label_class("CNC(=O)c1cc(Oc2ccc(NC(=O)Nc3ccc(Cl)c(C(C)(C)C)c3)c(F)c2)ccn1")
"Condition not met"
>>> label_class("C[C@H](NC(=O)[C@@H]1CSSC[C@@H](NC(=O)Cc2nc3ccccc3cc2O)C(=O)NCC(=O)N1C)c1ccccc1")
"Condition met"
>>> label_class("CCOC(=O)c1cc2c(n1Cc1cc(OC)cc(OC)c1)-c1oncc1CC2")
"Condition met"
>>> label_class("COc1c(C)c(C)c(OC)c2c1[nH]c(=O)c1c3cccnc3cn21")
"Condition not met"
>>> label_class("CCc1nn2c(-c3ccccc3)c(-c3cc(OC)c(OC)c(OC)c3)nc2s1")
"Condition not met"

###

Tested on: PC-3 prostate
Assay: NCI-60 one-dose screen, 48 h
Settings: 10 µM
Compounds without any hit were thinned out: in the full panel of roughly 83,000, 20% have a hit. The source made the active and inactive calls. How the source made its calls: active means growth percent below 10; inactive means the rest.
Outcome codes: active, inactive

>>> label_class("O=C(O)CNS(=O)(=O)c1ccc(OCCOc2ccc(S(=O)(=O)NCC(=O)O)cc2)cc1")
"inactive"
>>> label_class("O=C1NN(c2ccccc2)C(c2cccnc2)=N/C1=C\\c1cccnc1")
"inactive"
>>> label_class("COc1ccc(COC(=O)CC(C)C)cc1")
"inactive"
>>> label_class("O=C1CC(c2cccc(-c3cccnc3)c2)=Nc2ccc(Br)cc2N1")
"inactive"
>>> label_class("CCCCCCCCCCCCCC[n+]1ccccc1")
"active"
>>> label_class("CCc1c(C)[nH]c(=O)c(C(N)=O)c1C#N")
"inactive"
>>> label_class("Oc1cc(O)c(Br)cc1Br")
"inactive"

###

Test system: HOP-62 NSCLC
Assay: NCI-60 one-dose screen, 48 h
Conditions: 10 µM
About 83,000 compounds went through this panel and 20% of them were active in at least one assay; those are over-represented in the sample as a whole. Active and inactive are the calls of the source. The calls were made as follows: active = growth percent below 10; inactive = the rest.
Outcome codes: active, inactive

>>> label_class("N=C(N)c1ccc(-c2ccc(-c3ccccc3)s2)s1")
"active"
>>> label_class("c1ccc(COCC[P+](c2ccccc2)(c2ccccc2)c2ccccc2)cc1")
"inactive"
>>> label_class("C=C[C@]1(C)C=C2C(=O)[C@@]3(O)OC(=O)[C@@]4(CCCC(C)(C)[C@H]34)[C@@]2(O)CC1")
"active"

FYI, the data here is from PubChem BioAssay (NCI).
